Entries annotated with measured pIC50
target: BTK C481S (Homo sapiens, UniProt Q06187, C481S); test: BTK C481S in vitro inhibition
Sequence (Q06187 whole entry C481S): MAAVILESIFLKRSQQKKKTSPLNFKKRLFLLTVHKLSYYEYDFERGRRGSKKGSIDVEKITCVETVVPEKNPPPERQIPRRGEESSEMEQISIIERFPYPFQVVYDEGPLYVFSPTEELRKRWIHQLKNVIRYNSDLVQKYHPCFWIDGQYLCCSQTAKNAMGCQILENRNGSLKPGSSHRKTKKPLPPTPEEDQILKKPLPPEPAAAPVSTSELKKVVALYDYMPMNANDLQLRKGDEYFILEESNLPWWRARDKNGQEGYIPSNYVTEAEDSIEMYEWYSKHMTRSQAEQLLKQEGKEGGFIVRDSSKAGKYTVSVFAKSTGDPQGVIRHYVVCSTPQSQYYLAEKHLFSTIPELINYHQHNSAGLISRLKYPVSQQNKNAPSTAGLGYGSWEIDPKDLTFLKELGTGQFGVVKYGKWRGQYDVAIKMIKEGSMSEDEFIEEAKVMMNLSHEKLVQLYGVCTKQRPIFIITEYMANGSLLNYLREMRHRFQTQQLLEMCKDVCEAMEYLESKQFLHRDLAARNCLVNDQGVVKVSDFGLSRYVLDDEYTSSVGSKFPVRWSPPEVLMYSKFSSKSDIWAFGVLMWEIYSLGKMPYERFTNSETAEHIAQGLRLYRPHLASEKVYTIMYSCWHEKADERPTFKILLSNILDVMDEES
pIC50: −log10 of the molar value.
measured_quantity: pIC50

C/C=C(/C)C(=O)N1CCOc2ccc(-c3csc4c(=O)cc(N5CCOCC5)oc34)cc21 < 4.35
C=CC(=O)N1CCOc2ccc(-c3csc4c(=O)cc(N5CCN(C(=O)OC(C)(C)C)CC5)oc34)cc21 4.35 to 5.00
C=CS(=O)(=O)Nc1cccc(-c2csc3c(=O)cc(N4CCOCC4)oc23)c1 < 4.35
N#C/C(=C\C1CC1)C(=O)Nc1cccc(-c2csc3c(=O)cc(N4CCOCC4)oc23)c1 4.35 to 5.00
C=CC(=O)N1CCOc2ccc(-c3csc4c(=O)cc(N5CCNCC5)oc34)cc21 4.35 to 5.00
C=CC(=O)Nc1ccc(-c2csc3c(=O)cc(N4CCOCC4)oc23)cc1 < 4.35
C/C=C(\C)C(=O)N1CCOc2ccc(-c3csc4c(=O)cc(N5CCOCC5)oc34)cc21 < 4.35
C=CS(=O)(=O)Nc1cc(-c2csc3c(=O)cc(N4CCOCC4)oc23)ccc1OC < 4.35
O=c1cc(N2CCOCC2)oc2c(-c3ccc4c(c3)OCCO4)csc12 4.35 to 5.00

###

pIC50: −log10 of the molar value.
What follows is a record of pIC50 for CDK4 cyclinD1 (Homo sapiens, UniProt P11802).
measured_quantity: pIC50

CN(C)C(=O)c1cc2cnc(Nc3ccc(-c4csc5c(=O)cc(N6CCOCC6)oc45)cn3)nc2n1C1CCCC1 > 6.30
Cc1nn(-c2ccnc(Nc3ccc(-c4csc5c(=O)cc(N6CCNCC6)oc45)cc3)n2)cc1CN1CC(O)C1 5.00 to 6.00
Cc1nn(-c2ccnc(Nc3ccc(-c4csc5c(=O)cc(N6CCOCC6)oc45)cc3)n2)cc1CN1CCOCC1 < 4.35
CN(C)C(=O)c1cc2cnc(Nc3cc(C(=O)O)cc(-c4csc5c(=O)cc(N6CCOCC6)oc45)c3)nc2n1C1CCCC1 4.35 to 5.00
CN(C)C(=O)c1cc2cnc(Nc3ccc(-c4csc5c(=O)cc(N6CCOCC6)oc45)cc3)nc2n1C1CCCC1 > 6.30
Cc1nn(-c2ccnc(Nc3ccc(-c4csc5c(=O)cc(N6CCOCC6)oc45)cc3)n2)cc1CN1CC(O)C1 4.35 to 5.00
CNC(=O)c1cc2cnc(Nc3ccc(-c4csc5c(=O)cc(N6CCOCC6)oc45)cc3)nc2n1C1CCCC1 > 6.30
CN(C)C(=O)c1cc2cnc(N(c3cncc(-c4csc5c(=O)cc(N6CCOCC6)oc45)c3)c3ncc4cc(C(=O)N(C)C)n(C5CCCC5)c4n3)nc2n1C1CCCC1 > 6.30
CN(C)C(=O)c1cc2cnc(N3CCOc4cc(-c5csc6c(=O)cc(N7CCOCC7)oc56)ccc43)nc2n1C1CCCC1 < 4.35
CC(C)n1c(C(=O)N(C)C)cc2cnc(Nc3ccc(-c4csc5c(=O)cc(N6CCOCC6)oc45)cc3)nc21 > 6.30
CN(C)C(=O)c1cc2cnc(Nc3cncc(-c4csc5c(=O)cc(N6CCOCC6)oc45)c3)nc2n1C1CCCC1 > 6.30

###

target: UniProt:P43405
Catalogue of compounds with associated IC50
measured_quantity: IC50

compound	measured_quantity	recorded_measurement
Cc1nn(-c2ccnc(Nc3ccc(-c4csc5c(=O)cc(N6CCOCC6)oc45)cc3)n2)cc1CN1CC(O)C1 [Compound 52]	IC50	< 500 nM
Cc1nn(-c2ccnc(Nc3ccc(-c4csc5c(=O)cc(N6CCOCC6)oc45)cc3)n2)cc1CN(C)CCO [Compound 59]	IC50	500 to 1000 nM
Cc1nn(-c2ccnc(Nc3ccc(-c4csc5c(=O)cc(N6CCN(C(=O)OC(C)(C)C)CC6)oc45)cc3)n2)cc1CN1CC(O)C1 [Compound 56]	IC50	< 500 nM
Cc1nn(-c2ccnc(Nc3ccc(-c4csc5c(=O)cc(N6CCOCC6)oc45)cc3)n2)cc1CN1CCC1 [Compound 54]	IC50	< 500 nM
Cc1nn(-c2ccnc(Nc3ccc(-c4csc5c(=O)cc(N6CCNCC6)oc45)cc3)n2)cc1CN1CCC1 [Compound 55]	IC50	< 500 nM
